src = PubChem BioAssay

Please respond with reported z-score for every item in the list.
METHOD SUMMARY: RPMI8226 myeloma cell viability, profiling panel, resazurin fluorescence, basal, 24 h, PK04 Diversity Set (AID 1180);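 also: RPMI8826 multiple myeloma cell line at 5000 cells per well; test concentration not given here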
CONDITION LABEL: higher = more signal
Number, no unit, nothing else.

**Q:** For the compound CO[C@H]1COC(=O)CCC[C@H](C)[C@@H](OC)COC(=O)CC=C[C@@H]1C , what z-score is on record?
**A:** 1.07

**Q:** For the compound CCOC(=O)[C@H](CC(C)C)NC(=O)CCC1CC(OC(=O)NCc2ccc3c(c2)OCO3)CC2(CCCC(COC(=O)NCCOC)O2)O1 (some centres undefined) , what z-score is on record?
**A:** 0.912

**Q:** # input compound: COC(=O)[C@@H]1CC[C@H](C)[C@@H](c2ccc(Br)cc2)N1C(=O)C(F)(F)F ; wanted: its z-score
**A:** 0.399

**Q:** Reported z-score for O=C1C2=CC[C@H]3C(=O)N(c4ccc(F)cc4F)C(=O)[C@H]3[C@H]2[C@H](O)[C@@H]2O[C@H]12 : what is it?
**A:** -0.035

###

METHOD SUMMARY: anti-His antibody binders, primary screen, artefact control for SMM control protein annotation, biochemical, small-molecule microarray, 635 nm fluorescence (AID 1128);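 also: score merges feature fluorescence with signal-to-noise for each printed compound spot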
CONDITION LABEL: anti-His Alexa647 antibody binding, higher = more signal
PROPERTY: composite z-score

**Q:** composite z-score for CON=C1c2cc(OC)ccc2O[C@H](c2cccc(OC)c2)[C@H]1O ?
**A:** 0.293

**Q:** Which measured composite z-score value corresponds to CC(CCN1CCc2nc(-c3ccccc3)c(-c3ccccc3)cc2C1)=NO[C@@H](C)c1cc(-c2c(C)cc(C)cc2C)no1 ?
**A:** 0.962

**Q:** Data request, read-out composite z-score, for CC(C)CON=C1C[C@@H](O)[C@@H](O)[C@@H]2[C@@H]3C(=O)N(c4ccc(F)cc4F)C(=O)[C@@H]3CC[C@@H]12
**A:** 0.663

**Q:** Reported composite z-score for CCN1C(C)=C(C(=O)OC)[C@@H](c2ccccc2)N2C(=O)[C@](O)(C(=O)OC)CC(C(C)=O)=C12 : what is it?
**A:** -1.01

**Q:** Requested field: composite z-score. Item: CCOC(=O)[C@H](Cc1ccccc1)NC(=O)CCC1CC(OC(=O)NCc2cccc3ccccc23)CC2(CCCC(COC(=O)NCc3ccc4c(c3)OCO4)O2)O1 (stereo partly specified)
**A:** 0.209

**Q:** Sample CON=C[C@@H](OC)[C@H](C)C=CCC(=O)OC — what was its composite z-score?
**A:** 1.66

**Q:** Entry under review: CCOC(=O)NN=C1C[C@@H](O)[C@@H](O)[C@@H]2[C@@H]3C(=O)N(C[C@@H]4CCCO4)C(=O)[C@@H]3CC[C@H]12 . Reported composite z-score?
**A:** 0.57

**Q:** What composite z-score value was documented for this compound, O=C1C2=CC[C@H]3C(=O)N(Cc4ccccc4)C(=O)[C@H]3[C@H]2[C@H](O)[C@@H]2O[C@H]12 ?
**A:** 0.198

**Q:** Tell me the measured composite z-score of C=CC[C@@H]1C=C[C@H](ON=C2C[C@@H](O)[C@@H](O)[C@@H]3[C@@H]4C(=O)N(CC)C(=O)[C@@H]4CC[C@@H]23)[C@@H](CO)O1 , please.
**A:** -2.3

**Q:** Requested field: composite z-score. Item: O=C1CCCC=C1C(O)C1CCCCC1 (stereo unspecified)
**A:** -0.481

**Q:** So what does the record say about composite z-score for O=C1[C@H]2CCn3c(=O)n(-c4ccccc4)c(=O)n3[C@H]2[C@H](O)[C@@H]2O[C@H]12 ?
**A:** -0.0114

**Q:** # composite z-score lookup, item COC(=O)[C@H](C)NC(=O)CC=C[C@@H](C)[C@@H]1C=C[C@H](O)[C@@H](CO)O1
**A:** 0.0816

**Q:** Given the compound CSCC[C@@H]1NC(=O)CC=C[C@@H](C)COC(=O)[C@H](C)COC1=O , what is its reported composite z-score?
**A:** -1.14

**Q:** May I ask what composite z-score has been recorded for O=C1[C@H]2[C@H]3[C@H](O)[C@H](O)CC(=NOC[C@@H](O)COCc4ccco4)[C@@H]3CC[C@H]2C(=O)N1Cc1ccc2c(c1)OCO2 ?
**A:** -0.133

**Q:** Given CCCNC(=O)OC[C@H]1O[C@H](CCON=C2C[C@@H](O)[C@@H](O)[C@@H]3[C@@H]4C(=O)N(CC)C(=O)[C@@H]4CC[C@@H]23)C=C[C@@H]1Oc1ccc(OC)cc1 , state its recorded composite z-score.
**A:** 1.44

**Q:** # input compound: CC(CCN1CCCCc2nc(C)c(C)cc21)=NO[C@@H](C)c1cc(-c2c(C)cc(C)cc2C)no1 ; wanted: its composite z-score
**A:** -0.335
